target: human CTLA-4 (human) (UniProt P16410); experiment: flow cytometry, CHO cells stably expressing CTLA4
Sequence (P16410 36-223): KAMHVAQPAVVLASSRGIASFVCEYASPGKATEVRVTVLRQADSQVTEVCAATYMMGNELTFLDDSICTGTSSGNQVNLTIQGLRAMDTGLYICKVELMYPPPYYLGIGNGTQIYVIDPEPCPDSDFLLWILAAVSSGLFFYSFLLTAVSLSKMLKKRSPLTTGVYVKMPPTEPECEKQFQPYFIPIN
Measured parameter: MFI at 33.3 nM (MFI)

[1] variant CD80 IgV-Fc H18Y/A26E/M47L/A71G (Fc fusion) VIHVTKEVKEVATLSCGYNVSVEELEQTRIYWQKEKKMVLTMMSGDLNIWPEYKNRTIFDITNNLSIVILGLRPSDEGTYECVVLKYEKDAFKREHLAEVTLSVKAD
[2] CD80 E35D/D46V/M47L/V68M/L85Q/E88D IgV-Fc, (EAAAK)3 linker (Fc fusion) VIHVTKEVKEVATLSCGHNVSVEELAQTRIYWQKDKKMVLTMMSGVLNIWPEYKNRTIFDITNNLSIMILALRPSDEGTYECVVQKYDKDAFKREHLAEVTLSVKADEAAAKEAAAKEAAAK
Of the pair 1 and 2 , name the member with the lesser recorded MFI at 33.3 nM. When you have decided, please share the label of that item.
1
(1: 22100 MFI, 2: 32000 MFI)
